# Tested on: NCI-H322M lung
# Measurement protocol: NCI-60 one-dose screen, 48 h (100 = growth as untreated, 0 = no growth, -100 = all killed)
# Test conditions: 10 µM unless noted
About 83,000 compounds went through this panel and 20% of them were active in at least one assay; those are over-represented in the sample as a whole.
Item-by-item account of growth

- Compound: "CCCC(C)(C)COC(=O)c1cccc(N)c1"
  Units: "%"
  growth: 80.9
- Compound: "O=S(=O)(Nc1cccc2cc(OS(=O)(=O)c3ccccc3)ccc12)c1ccccc1"
  Units: "%"
  growth: 90.1
- Compound: "NN=C(c1ccc(Cl)cc1)c1ccc(Cl)cc1"
  Units: "%"
  growth: 123
- Compound: "COc1ccc(C2=NN(C(=O)COc3ccc(Cl)cc3)C(O)(c3cc(F)c(Cl)cc3Cl)C2)cc1 (stereo unspecified)"
  Units: "%"
  growth: 83.4
- Compound: "CN(C)c1ccc(/C=N/n2c(-c3cc(F)c(Cl)cc3Cl)nn(CN3CCOCC3)c2=S)cc1"
  Units: "%"
  growth: 94.9
- Compound: "CCOC(=O)c1noc2c1CCc1cn(Cc3cc(OC)cc(OC)c3)cc1-2"
  Units: "%"
  growth: 102
- Compound: "CCCCCCCCCCCCCCCCNc1ccccc1"
  Units: "%"
  growth: 83.8
- Compound: "O=C1C(Cl)=C(Nc2ccccc2)C(=O)C(Cl)=C1Nc1ccccc1"
  Units: "%"
  growth: 120
- Compound: "c1nc(SC2=NCCN2)c2[nH]cnc2n1"
  Units: "%"
  growth: 36.3
- Compound: "CCCCn1c(-c2cccc(OC)c2)nc2cc(OC)c(OC)cc2c1=O"
  Units: "%"
  growth: 197
- Compound: "CN1CCN(CC(O)COc2c(Br)c(Br)c(Br)c3c2OC(C)(C)C3)CC1 (stereo unspecified)"
  Units: "%"
  growth: 73

---

# System: HOP-92 NSCLC
# Measurement protocol: NCI-60 one-dose screen, 48 h (100 = growth as untreated, 0 = no growth, -100 = all killed)
# Test conditions: 10 µM unless noted
The panel holds about 83,000 compounds, 20% with a hit somewhere; the sample as a whole holds those more often.

- Molecule: "CC(Cc1cccc(C(F)(F)F)c1)NCCOC(=O)c1ccccc1 (configuration not stated)"
  growth / %: 114
- Molecule: "NC(CSC(c1ccccc1)(c1ccccc1)c1ccc(F)cc1)C(=O)O (configuration not stated)"
  growth / %: -24.3
- Molecule: "COc1cc(NC(C)CCCN2C(=O)c3ccccc3C2=O)c2ncccc2c1OC (configuration not stated)"
  growth / %: 45.4
- Molecule: "O=c1[nH]ccc2nc(N3CCC(O)CC3)nc(Nc3cccc(C(F)(F)F)c3)c12"
  growth / %: 105
- Molecule: "COc1ccc(-c2nnc(SCC(=O)Nc3ccc(C(=O)/C=C/c4ccccc4)cc3)o2)cc1OC"
  growth / %: 105
- Molecule: "COC(=O)/C=C/C(=O)c1cc(C)cc(C)c1O"
  growth / %: 113
- Molecule: "OC(COc1ccccc1Cl)CN1CCN(c2ccc(Cl)cc2)CC1 (configuration not stated)"
  growth / %: 85.8
- Molecule: "Nc1ncnc2c1c(-c1ccc(Oc3ccccc3)cc1)nn2C[C@H]1SSC[C@H]1O"
  growth / %: -4.52
- Molecule: "COc1ccc(/C(Cl)=N/N=C(\\Cl)c2cc(OC)c(OC)c(OC)c2)cc1OC(C)=O"
  growth / %: 77.3
- Molecule: "O=C(N/N=C/c1ccccc1O)c1ccccc1O"
  growth / %: 56.5
- Molecule: "CSc1nc(N)nc2c1ncn2C"
  growth / %: 64.5
- Molecule: "CCc1cccc(-c2ccccc2)c1"
  growth / %: 92.9
- Molecule: "NS(=O)(=O)c1ccc(Nc2nc(O)c(/C=C3\\C=Nc4ccccc43)s2)cc1"
  growth / %: 114
- Molecule: "CC(CCC(=O)O)[C@H]1CCC2C3C(=O)C[C@@H]4CC(=O)CC[C@]4(C)C3CC(=O)[C@@]21C (some centres not stated)"
  growth / %: 96.2
- Molecule: "CC1CCC(C(C)C)C(NN)C1 (configuration not stated)"
  growth / %: 110
- Molecule: "CCCN1C(=O)CSC1=Nc1ccc2cc3ccc(N=C4SCC(=O)N4CCC)cc3nc2c1"
  growth / %: 57.1
- Molecule: "COc1ccc(-c2c(NC(=O)Nc3ccc(Cl)c(C(F)(F)F)c3)cnn2-c2ccc(S(N)(=O)=O)cc2)cc1"
  growth / %: 0.848
- Molecule: "COc1ccc(C2=NN(C(=O)COc3ccc(Cl)cc3)C(O)(c3cc(F)c(Cl)cc3Cl)C2)cc1 (configuration not stated)"
  growth / %: 39.4
- Molecule: "CCOC(=O)C1CSC(C)(C(=O)OCC)N1 (configuration not stated)"
  growth / %: 84.7
- Molecule: "O=C(O)c1cccc2oc(-c3ccccc3O)nc12"
  growth / %: 48.8
- Molecule: "O=C(NCCNc1nccc(-c2c(-c3cccc(O)c3)nc3sccn23)n1)c1ccccc1O"
  growth / %: 59.9
- Molecule: "COc1cc(Cn2cc3c(c2)-c2onc(CO)c2CC3)cc(OC)c1OC"
  growth / %: 67
